- System: Saccharomyces cerevisiae
- EXPERIMENT: protein stability index of tFT-peptide fusion (C-terminal peptide) (PSI (0-1 scale)); higher = more stable (slower turnover)
- MEASUREMENT_CONTEXT: genetic background: cdc53-1; temperature: 37 C
Give label 1 when the value for protein stability index is at least 0.5. Give label 0 when it is less.

Problem: Reported protein stability index reaches at least 0.5 for GQRIKWGPIYLT ?
Solution: label 0

Problem: Reported protein stability index reaches at least 0.5 for RKVWSLCWFVHL ?
Solution: label 1

Problem: Reported protein stability index reaches at least 0.5 for FFVFVVFFCFGL ?
Solution: label 0

Problem: Reported protein stability index reaches at least 0.5 for IFPSRSLLAASA ?
Solution: label 0

Problem: Reported protein stability index reaches at least 0.5 for RVTYWKAVLVRL ?
Solution: label 0

Problem: Reported protein stability index reaches at least 0.5 for LRFFYFLHFCIL ?
Solution: label 0

Problem: Reported protein stability index reaches at least 0.5 for GFAFFIGLSFAF ?
Solution: label 1

Problem: Reported protein stability index reaches at least 0.5 for FVYFLLVVCFAF ?
Solution: label 0

Problem: Reported protein stability index reaches at least 0.5 for IDLISRVTVVAR ?
Solution: label 0

Problem: Reported protein stability index reaches at least 0.5 for IYFFVLRLRLCG ?
Solution: label 0

Problem: Reported protein stability index reaches at least 0.5 for FLLGWFLFFVCS ?
Solution: label 0

Problem: Reported protein stability index reaches at least 0.5 for ERRWVLVAWRFK ?
Solution: label 1

Problem: Reported protein stability index reaches at least 0.5 for PHSMRTTTIMCS ?
Solution: label 0

====

Some sequences, each annotated with its measured protein stability index.
- Tested on: Saccharomyces cerevisiae
- EXPERIMENT: protein stability index of tFT-peptide fusion (C-terminal peptide) (PSI (0-1 scale)); higher = more stable (slower turnover)
- MEASUREMENT_CONTEXT: genetic background: das1 deletion; temperature: 30 C

Some sequences with recorded protein stability index:
SEQUENCE_ENTRY: LRSKVKNHAQRH [YLR428C C-terminal 12 aa]
VAL: 0.714
//
SEQUENCE_ENTRY: DDPDENTALLGA [YDR338C C-terminal 12 aa]
VAL: 0.708
//
SEQUENCE_ENTRY: EAGDSDILTTLA [RPL30 C-terminal 12 aa]
VAL: 0.706

Please look at the following sequence next.
Problem: Name the value of protein stability index reported for LKALANETMSRI [VPS16 C-terminal 12 aa] when tested on Saccharomyces cerevisiae.
Solution: 0.712

====

- System: Saccharomyces cerevisiae
- EXPERIMENT: protein stability index of tFT-peptide fusion in deletion strain of DAS1 (PSI (0-1 scale)); higher = more stable (slower turnover)
Give Met when the value for protein stability index is at least 0.6. Give Not met when it is less.

SEQUENCE_ENTRY: ARWRRGLWRGAS
ASSIGNED_CLASS: Met
--
SEQUENCE_ENTRY: ARWGVGLWRGAS
ASSIGNED_CLASS: Met
--
SEQUENCE_ENTRY: PDKRNHLILLLN
ASSIGNED_CLASS: Met
--
SEQUENCE_ENTRY: PSLAASFWRVVGP
ASSIGNED_CLASS: Met
--
SEQUENCE_ENTRY: LVVYLSMVACIN
ASSIGNED_CLASS: Not met

// switching to the query sequence
Problem: Reported protein stability index reaches at least 0.6 for ARWRVGLWRCAS ?
Solution: Met
